Molecular target: T1, rat angiotensin 2 type 1 receptor (rat, UniProt P25095 1-359)
T1 sequence (looked up): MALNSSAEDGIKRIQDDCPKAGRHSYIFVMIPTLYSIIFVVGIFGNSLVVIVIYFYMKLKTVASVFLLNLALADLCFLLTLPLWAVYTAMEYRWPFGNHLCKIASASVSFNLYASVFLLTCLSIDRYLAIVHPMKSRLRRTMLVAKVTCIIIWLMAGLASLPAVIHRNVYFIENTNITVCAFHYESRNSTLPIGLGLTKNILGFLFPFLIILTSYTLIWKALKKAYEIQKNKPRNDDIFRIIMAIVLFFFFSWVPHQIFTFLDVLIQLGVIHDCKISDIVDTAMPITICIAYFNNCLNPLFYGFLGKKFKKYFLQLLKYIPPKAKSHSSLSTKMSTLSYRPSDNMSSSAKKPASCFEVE
Experiment: cell-based or functional assay
Non-standard residues stand in square brackets, D forms with d. No end group written: not given here. Sar = CNCC(=O)O
reportedEndpoint: b-arrestin2 EC50 (nM)

What measured b-arrestin2 EC50 goes with [Sar]RVYEHP-NH2 (N-terminus assumed; SMILES CNCC(=O)N[C@@H](CCCNC(=N)N)C(=O)N[C@H](C(=O)N[C@@H](Cc1ccc(O)cc1)C(=O)N[C@@H](CCC(=O)O)C(=O)N[C@@H](Cc1c[nH]cn1)C(=O)N1CCC[C@H]1C(N)=O)C(C)C) [SEQ ID NO: 40] ?
31

Record request: b-arrestin2 EC50 value, item [Sar]RVYRHP-NH2 (N-terminus assumed; SMILES CNCC(=O)N[C@@H](CCCNC(=N)N)C(=O)N[C@H](C(=O)N[C@@H](Cc1ccc(O)cc1)C(=O)N[C@@H](CCCNC(=N)N)C(=O)N[C@@H](Cc1c[nH]cn1)C(=O)N1CCC[C@H]1C(N)=O)C(C)C) [SEQ ID NO: 45]
27

(P) [Sar]RVYVH-NH2 (N-terminus assumed; SMILES CNCC(=O)N[C@@H](CCCNC(=N)N)C(=O)N[C@H](C(=O)N[C@@H](Cc1ccc(O)cc1)C(=O)N[C@H](C(=O)N[C@@H](Cc1c[nH]cn1)C(N)=O)C(C)C)C(C)C) [SEQ ID NO: 55]
(Q) ARVYIHPA (NM-D-Ala (N-methyl-D-alanine) at 1) [SEQ ID NO: 47]
Given the two records P and Q , choose the one whose b-arrestin2 EC50 value is lower. Identify your pick by its label.
P

The values you see were collected from patent US20100184701A1.
